TARGET_DESC: cIAP1-BIR3 (Homo sapiens, UniProt Q13490)
Construct: from the BIR3 domains of XIAP, cIAP1, and cIAP2
Sequence (Q13490 260-352 limits assumed): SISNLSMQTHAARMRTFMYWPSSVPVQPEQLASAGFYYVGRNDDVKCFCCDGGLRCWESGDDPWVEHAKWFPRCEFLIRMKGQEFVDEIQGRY
PROTOCOL_DETAILS: DELFIA displacement assay (biotinylated AVPI peptide)
Type: binding
ASSAY_SETUP: without preincubation (top values)
pIC50: −log10 of the molar value.
PARAMETER: pIC50

mol=CN[C@@H](C)C(=O)N[C@H](C(=O)N1CCC[C@H]1C(=O)N[C@@H]1CCc2c(O)cccc21)C1CCCCC1 parameter=pIC50 measured_value=7.78

====

PROTOCOL_DETAILS: in vivo
ASSAY_SETUP: Balb/c, mouse, plasma, ip, 30 mg/kg
PARAMETER: bioavailability at 24 h (%)

molecule="CN[C@@H](C)C(=O)N[C@H](C(=O)N1CCC[C@H]1C(=O)N[C@@H]1CCc2c(OS(=O)(=O)F)cccc21)C1CCCCC1 [142D6]" parameter="bioavailability at 24 h" measured_value=35

====

PROTOCOL_DETAILS: in vivo
ASSAY_SETUP: Balb/c, mouse, plasma, po, 30 mg/kg
PARAMETER: bioavailability at 24 h (%)

mol=CN[C@@H](C)C(=O)N[C@H](C(=O)N1CCC[C@H]1C(=O)N[C@@H]1CCc2c(OS(=O)(=O)F)cccc21)C1CCCCC1 parameter="bioavailability at 24 h" measured_value=36

====

PROTOCOL_DETAILS: Solubility in dosing formulation
Format: physicochemical
ASSAY_SETUP: dosing formulation of 80% PBS, 10% ethanol, 10% Tween80, aqueous with cosolvent or surfactant or cyclodextrin
PARAMETER: solubility (µg/mL)

mol=CN[C@@H](C)C(=O)N[C@H](C(=O)N1CCC[C@H]1C(=O)N[C@@H]1CCc2c(OS(=O)(=O)F)cccc21)C1CCCCC1 parameter=solubility measured_value=7500
